The origin of these recorded values is PubChem BioAssay (NCI).

Test system: HT29 colon
methodNotes: NCI-60 one-dose screen, 48 h (100 = growth as untreated, 0 = no growth, -100 = all killed)
measurementParameters: 10 µM unless noted
This is part of a sample that, as a whole, favours compounds with a hit. Of some 83,000 tested, about 20% had one in any assay. Active and inactive are the calls of the source. How the source made its calls: active means growth percent below 10; inactive means the rest.

{"smilesEntry": "O=C(N/N=C/c1ccc(Cl)cc1Cl)c1ccc2nc(-c3ccc(Cl)cc3)[nH]c2c1", "growth": "1.67% (active)"}
{"smilesEntry": "COc1cc(-c2nc(NC(C)=O)sc2-c2ccnc(NCCNS(=O)(=O)c3ccccc3)n2)ccc1Cl", "growth": "3.97% (active)"}
{"smilesEntry": "CC/C=C1/C(=O)C=C[C@@H]1C/C=C\\CCCC(=O)OC", "growth": "24.8% (inactive)"}
{"smilesEntry": "O=C(Cn1nnc2ccccc21)N/N=C/c1ccccc1F", "growth": "99.5% (inactive)"}
{"smilesEntry": "CC[C@H](Nc1nc(N)nc(C)c1C#N)c1nc2cccc(NCCCCCC(=O)NO)c2c(=O)n1-c1ccccc1", "growth": "79.2% (inactive)"}
{"smilesEntry": "CCNC(=O)Oc1ccc(/C(=C(/C)Cc2ccc(OC)cc2)c2ccc(OCCN3CCCCCC3)cc2)cc1", "growth": "2.15% (active)"}

----------
Tested on: COLO 205 colon
methodNotes: NCI-60 one-dose screen, 48 h (100 = growth as untreated, 0 = no growth, -100 = all killed)
measurementParameters: 10 µM unless noted
This is part of a sample that, as a whole, favours compounds with a hit. Of some 83,000 tested, about 20% had one in any assay. Activity calls are given as the source filed them. How the source made its calls: active means growth percent below 10; inactive means the rest.

{"compound": "N#C/C(=C\\c1ccc(-c2ccc(Cl)cc2)o1)c1ccc(Cl)cc1", "growth": "77.1% (inactive)"}
{"compound": "Cc1[nH]c(C(=O)Nc2cccc(OC3CCNCC3)c2)c(Cl)c1Cl", "growth": "-35.3% (active)"}
{"compound": "CC(O)c1ncc(/C=C2\\SC(=S)N(Cc3ccccc3)C2=O)s1 (centres undefined)", "growth": "96.2% (inactive)"}
{"compound": "CC(=O)c1cc(-c2ccccc2N)n(-c2ccc3c(c2)OCO3)c1C", "growth": "-18.6% (active)"}

----------
System: RPMI-8226 leukemia
methodNotes: NCI-60 one-dose screen, 48 h
measurementParameters: 10 µM unless noted
This is part of a sample that, as a whole, favours compounds with a hit. Of some 83,000 tested, about 20% had one in any assay. Activity calls are given as the source filed them. The calls were made as follows: active = growth percent below 10; inactive = the rest.
Labels: True = active, False = inactive

{"compound": "COc1cc2c3c(n(CCCCNCCCn4c5c(c6cc(OC)c(OC)cc6c4=O)C(=O)c4cc6c(cc4-5)OCO6)c(=O)c2cc1OC)-c1cc2c(cc1C3=O)OCO2", "experimentalSystem": "RPMI-8226 leukemia", "group": "False"}
{"compound": "COc1ccc(C2C3=C(COC3=O)N(CCO)c3cc4c(cc32)OCCO4)cc1OC (stereo unspecified)", "experimentalSystem": "RPMI-8226 leukemia", "group": "False"}
{"compound": "COc1ccccc1NC(=O)c1ccc(/C=C/C(=O)c2nccn2C)cc1", "experimentalSystem": "RPMI-8226 leukemia", "group": "True"}
{"compound": "N#Cc1c(-c2cccc([N+](=O)[O-])c2)cc(-c2ccc(Nc3nc(Nc4ccc(F)cc4)nc(Nc4ccc(F)cc4)n3)cc2)nc1N", "experimentalSystem": "RPMI-8226 leukemia", "group": "False"}
{"compound": "O=C1CCC(C(=O)NN(c2ccccc2)c2ccccc2)N1 (stereo unspecified)", "experimentalSystem": "RPMI-8226 leukemia", "group": "False"}
{"compound": "C=C(c1ccc(C(=O)O)cn1)c1cc2c(cc1C)C(C)(C)CCC2(C)C", "experimentalSystem": "RPMI-8226 leukemia", "group": "False"}
{"compound": "CCN1C(=O)N(CC)C2C1NN=c1s/c(=C\\c3ccccc3Br)c(=O)n12 (stereo unspecified)", "experimentalSystem": "RPMI-8226 leukemia", "group": "False"}
{"compound": "CCOC(=O)c1ccc2c(c1)c1c(C)c3ccncc3c(C)c1n2C", "experimentalSystem": "RPMI-8226 leukemia", "group": "True"}
{"compound": "NC(=O)OCCn1cc(-c2nc(-c3c[nH]c4ncccc34)cs2)c2ccccc21", "experimentalSystem": "RPMI-8226 leukemia", "group": "False"}
{"compound": "O=P(O)(O)OCC1OC(n2cnc3c(NCc4ccccc4)ncnc32)C(O)C1O (stereo unspecified)", "experimentalSystem": "RPMI-8226 leukemia", "group": "False"}
{"compound": "CC/C=C\\C/C=C/C=C1/C(=O)C=C[C@@H]1C/C=C\\CCCC(=O)OC", "experimentalSystem": "RPMI-8226 leukemia", "group": "True"}
{"compound": "CCn1cc(CNc2ccc(C(=O)Nc3cc4cc(OC)c(OC)cc4c(C)n3)cc2)c(C)n1", "experimentalSystem": "RPMI-8226 leukemia", "group": "True"}
{"compound": "O=C1NC(=C(Cl)Cl)/C(=N/S(=O)(=O)NCCc2c[nH]c3ccccc23)N1", "experimentalSystem": "RPMI-8226 leukemia", "group": "False"}
{"compound": "COc1cc(C(=O)/C=C/c2c(-c3cccs3)nc3ccccn23)cc(OC)c1OC", "experimentalSystem": "RPMI-8226 leukemia", "group": "True"}
{"compound": "Cc1nc2ccccc2c(/C=C/c2ccc(C(F)(F)F)cc2)c1C(=O)/C=C/c1ccccc1", "experimentalSystem": "RPMI-8226 leukemia", "group": "True"}
{"compound": "O=C(CCCCCCN1CC(=O)N2[C@@H](c3ccc(Cl)cc3)c3[nH]c4ccccc4c3C[C@H]2C1=O)NO", "experimentalSystem": "RPMI-8226 leukemia", "group": "False"}
{"compound": "Clc1nccc2c(-c3csc(-c4c[nH]c5ccccc45)n3)c[nH]c12", "experimentalSystem": "RPMI-8226 leukemia", "group": "False"}
{"compound": "Cc1nn(-c2ccccc2)c(/N=C/N(C)C)c1/C=C/C(=O)c1ccc(Cl)cc1", "experimentalSystem": "RPMI-8226 leukemia", "group": "True"}
{"compound": "O=C(Cn1cc(CN2C(=O)c3ccccc3S2(=O)=O)nn1)Nc1cccc(Cl)c1", "experimentalSystem": "RPMI-8226 leukemia", "group": "False"}
{"compound": "CC(C)[C@@]12C[C@@H](OC(=O)COC(=O)c3ccccc3)[C@@](C)(O1)[C@@H]1CC[C@@H](C)[C@H]1[C@@H]2OC(=O)/C=C/c1ccccc1", "experimentalSystem": "RPMI-8226 leukemia", "group": "False"}
{"compound": "CC(C)(C)c1cc(C=Nc2cccc(C(F)(F)F)c2)c(O)c(C(C)(C)C)c1", "experimentalSystem": "RPMI-8226 leukemia", "group": "False"}
{"compound": "COc1cc(-c2nc3occn3c2-c2ccnc(NCCCNS(=O)(=O)c3ccccc3)n2)ccc1F", "experimentalSystem": "RPMI-8226 leukemia", "group": "True"}
{"compound": "COc1cccc(NC(=O)c2cccc(C3CCc4c(cc(OC)c(OC)c4OC)O3)c2)c1 (stereo unspecified)", "experimentalSystem": "RPMI-8226 leukemia", "group": "False"}
{"compound": "COc1ccc2c(c1)c(-c1nonc1-c1c[nH]c3ccc(Br)cc13)cn2C", "experimentalSystem": "RPMI-8226 leukemia", "group": "False"}
{"compound": "Cc1c2cc[nH]c(=O)c2c(C)c2c1[nH]c1ccc(OC(=O)c3ccccc3)cc12", "experimentalSystem": "RPMI-8226 leukemia", "group": "False"}
{"compound": "C=CCn1c(SCC(=O)Nc2ccc(C(=O)/C=C/c3cc(OC)c(OC)c(OC)c3)cc2)nnc1-c1cc(-c2ccc(OC)cc2)nc2ccccc12", "experimentalSystem": "RPMI-8226 leukemia", "group": "False"}
